Test system: Mycobacterium tuberculosis Erdman (autoluminescent)
Test: Einf, fitted maximum growth inhibition of three-drug combination (fraction); higher = stronger maximal inhibition
Conditions: in vitro model: standard 7H9 glycerol; time point: constant = terminal
endpoint name: Einf
Give the figure by itself; no unit, no explanation.

compound: CC(C)/N=c1\cc2n(-c3ccc(Cl)cc3)c3ccccc3nc-2cc1Nc1ccc(Cl)cc1 [clofazimine] + CC[C@@H](CO)NCCN[C@@H](CC)CO [ethambutol] + CO[C@H]1/C=C/O[C@@]2(C)Oc3c(C)c(O)c4c(O)c(c(/C=N/N5CCN(C)CC5)c(O)c4c3C2=O)NC(=O)/C(C)=C\C=C\[C@H](C)[C@H](O)[C@@H](C)[C@@H](O)[C@@H](C)[C@H](OC(C)=O)[C@@H]1C [rifampicin]
study system: Mycobacterium tuberculosis Erdman (autoluminescent)
Einf: 0.922

compound: COc1nc2ccc(Br)cc2cc1[C@@H](c1ccccc1)[C@@](O)(CCN(C)C)c1cccc2ccccc12 [bedaquiline] + COc1c(N2C[C@@H]3CCCN[C@@H]3C2)c(F)cc2c(=O)c(C(=O)O)cn(C3CC3)c12 [moxifloxacin] + CO[C@H]1/C=C/O[C@@]2(C)Oc3c(C)c(O)c4c(O)c(c(/C=N/N5CCN(C)CC5)c(O)c4c3C2=O)NC(=O)/C(C)=C\C=C\[C@H](C)[C@H](O)[C@@H](C)[C@@H](O)[C@@H](C)[C@H](OC(C)=O)[C@@H]1C [rifampicin]
study system: Mycobacterium tuberculosis Erdman (autoluminescent)
Einf: 0.96

Shift focus to the following entry.
Recorded Einf of COc1nc2ccc(Br)cc2cc1[C@@H](c1ccccc1)[C@@](O)(CCN(C)C)c1cccc2ccccc12 [bedaquiline] + CC(=O)NC[C@H]1CN(c2ccc(N3CCOCC3)c(F)c2)C(=O)O1 [linezolid] + CO[C@H]1/C=C/O[C@@]2(C)Oc3c(C)c(O)c4c(O)c(c(/C=N/N5CCN(C)CC5)c(O)c4c3C2=O)NC(=O)/C(C)=C\C=C\[C@H](C)[C@H](O)[C@@H](C)[C@@H](O)[C@@H](C)[C@H](OC(C)=O)[C@@H]1C [rifampicin] , please. 0.938

Origin of values: the supplement of paper PMC8617591
